# protocol_details: Evaluation of gelation of lipid peptides with pure water
# Assay type: physicochemical
# reported_conditions: lipid peptide 0.50% (w/v)
Residues, ends and D or L forms follow the SMILES beside them.

{"columns": ["compound", "Gelation"],
 "data": [
  ["CCCCCCCCCCCCCCCC(=O)NCC(=O)N[C@@H](Cc1c[nH]cn1)C(=O)O.O=C(O)C(F)(F)F [Example 1, N-palmitoyl-Gly-His.TFA salt] (HELM PEPTIDE1{[CCCCCCCCCCCCCCCC(=O)[*:2]].G.H}$$$$V2.0)", "◯"],
  ["CCCCCCCCCCCC(=O)NCC(=O)N[C@@H](Cc1c[nH]cn1)C(=O)O.O=C(O)C(F)(F)F [Example 6, N-Lauroyl-Gly-His.TFA Salt] (HELM PEPTIDE1{[CCCCCCCCCCCC(=O)[*:2]].G.H}$$$$V2.0)", "◯"],
  ["CCCCCCCCCCCCCC(=O)NCC(=O)N[C@@H](Cc1c[nH]cn1)C(=O)O.O=C(O)C(F)(F)F [Example 8, N-Myristoyl-Gly-His.TFA Salt] (HELM PEPTIDE1{[CCCCCCCCCCCCCC(=O)[*:2]].G.H}$$$$V2.0)", "◯"],
  ["CCCCCCCCCCCCCCCC(=O)N[C@@H](C)C(=O)N[C@@H](Cc1c[nH]cn1)C(=O)O.O=C(O)C(F)(F)F [Example 10, N-Palmitoyl-Ala-His.TFA salt] (HELM PEPTIDE1{[CCCCCCCCCCCCCCCC(=O)[*:2]].A.H}$$$$V2.0)", "◯"],
  ["CCCCCCCCCCCCCCCCCCCCCC(=O)NCC(=O)N[C@@H](Cc1c[nH]cn1)C(=O)O.O=C(O)C(F)(F)F [Example 7, N-Behenoyl-Gly-His.TFA Salt]", "◯"]
]}

----------
# protocol_details: Evaluation of gelation of lipid peptides with pure water
# Type: physicochemical
# reported_conditions: lipid peptide 0.25% (w/v)
Residues, ends and D or L forms follow the SMILES beside them.
measured_property: Gelation

{"columns": ["compound", "endpoint_value"],
 "data": [
  ["CCCCCCCCCCCCCCCCCCCCCC(=O)NCC(=O)N[C@@H](Cc1c[nH]cn1)C(=O)O.O=C(O)C(F)(F)F [Example 7, N-Behenoyl-Gly-His.TFA Salt]", "◯"],
  ["CCCCCCCCCCCCCC(=O)NCC(=O)N[C@@H](Cc1c[nH]cn1)C(=O)O.O=C(O)C(F)(F)F [Example 8, N-Myristoyl-Gly-His.TFA Salt] (HELM PEPTIDE1{[CCCCCCCCCCCCCC(=O)[*:2]].G.H}$$$$V2.0)", "◯"],
  ["CCCCCCCCCCCC(=O)NCC(=O)N[C@@H](Cc1c[nH]cn1)C(=O)O.O=C(O)C(F)(F)F [Example 6, N-Lauroyl-Gly-His.TFA Salt] (HELM PEPTIDE1{[CCCCCCCCCCCC(=O)[*:2]].G.H}$$$$V2.0)", "◯"],
  ["CCCCCCCCCCCCCCCC(=O)NCC(=O)N[C@@H](Cc1c[nH]cn1)C(=O)O.O=C(O)C(F)(F)F [Example 1, N-palmitoyl-Gly-His.TFA salt] (HELM PEPTIDE1{[CCCCCCCCCCCCCCCC(=O)[*:2]].G.H}$$$$V2.0)", "◯"],
  ["CCCCCCCCCCCCCCCC(=O)N[C@@H](C)C(=O)N[C@@H](Cc1c[nH]cn1)C(=O)O.O=C(O)C(F)(F)F [Example 10, N-Palmitoyl-Ala-His.TFA salt] (HELM PEPTIDE1{[CCCCCCCCCCCCCCCC(=O)[*:2]].A.H}$$$$V2.0)", "◯"]
]}

Values compiled from patent US9289496B2.
